Measurement target: Human immunodeficiency virus type 1 protease (Human immunodeficiency virus 1, UniProt Q72874)
Observable: Ki (nM)
Reply numerically in nM, unit not repeated.

I'd like to know its Ki. The compound in question is Cc1ccc(S(=O)(=O)N(CC(C)C)[C@@H](CCCCNC(=O)C(c2ccccc2)c2ccccc2)C(=O)O)cc1
171

We next turn to a different compound, shown below.
I'd like to know its Ki. The compound in question is CC(C)CN([C@H](CO)CCCCNC(=O)CN(Cc1ccc(F)cc1)c1ccccc1)S(=O)(=O)c1ccc(N)cc1
2.3

* * *

Let's go through some Ki measurements on UniProt Q72874 together.
Reply numerically in nM, unit not repeated.

Guide cases for Ki, answers given:
Please tell me: Ki of CC(C)CN([C@H](CO)CCCCNC(=O)CN(Cc1ccccc1)c1ccccc1)S(=O)(=O)c1ccc(N)cc1 , system UniProt Q72874?
2.4

Please tell me: Ki of Cc1ccc(S(=O)(=O)N(CC(C)C)[C@@H](CCCCNC(=O)CN(Cc2ccccc2)c2ccccc2)C(=O)O)cc1 , system UniProt Q72874?
0.72

Please tell me: Ki of CC(C)CN([C@H](CO)CCCCNC(=O)CN(Cc1cccc(N)c1)c1ccccc1)S(=O)(=O)c1ccc(N)cc1 , system UniProt Q72874?
6.9

Please tell me: Ki of Cc1ccc(S(=O)(=O)N(CC(C)C)[C@@H](CCCCNC(=O)N(C)Cc2ccccc2)C(=O)O)cc1 , system UniProt Q72874?
55

Please tell me: Ki of COc1ccc(CN(CC(=O)NCCCC[C@@H](CO)N(CC(C)C)S(=O)(=O)c2ccc(C)cc2)c2ccccc2)cc1 , system UniProt Q72874?
7.3

Please tell me: Ki of Cc1ccc(S(=O)(=O)N(CC(C)C)[C@H](CO)CCCCNC(=O)CN(Cc2ccccc2[N+](=O)[O-])c2ccccc2)cc1 , system UniProt Q72874?
3.9

We next turn to a different compound, shown below.
Please tell me: Ki of Cc1ccc(S(=O)(=O)N(CC(C)C)[C@H](CO)CCCCNC(=O)CN(Cc2cccc(N)c2)c2ccccc2)cc1 , system UniProt Q72874?
7.6

Numbers sourced from ChEMBL document CHEMBL1145883.
